Assayed Target: UniProtKB P41149
Sequence (P41149 whole entry): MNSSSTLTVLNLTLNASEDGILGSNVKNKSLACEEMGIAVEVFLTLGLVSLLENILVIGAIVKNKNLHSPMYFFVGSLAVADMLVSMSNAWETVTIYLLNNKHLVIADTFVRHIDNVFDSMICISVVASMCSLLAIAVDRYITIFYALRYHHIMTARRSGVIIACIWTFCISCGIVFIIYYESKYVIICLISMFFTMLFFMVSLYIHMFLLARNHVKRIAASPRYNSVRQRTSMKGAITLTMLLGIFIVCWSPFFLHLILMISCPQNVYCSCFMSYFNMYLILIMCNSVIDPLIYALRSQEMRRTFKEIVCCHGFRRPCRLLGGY
Assay Setup: up to 100 μM
Reported Endpoint: MC5R activity in words

[[record]]
compound = "C[C@@H]1NC(=O)[C@H](CN)NC(=O)[C@@H](Cc2ccccc2)NC(=O)[C@@H](Cc2ccccc2)NC(=O)[C@H](CCCNC(=N)N)NC(=O)[C@@H]2CCCN2C(=O)[C@H]2CCCN2C(=O)[C@H](Cc2ccccc2)NC1=O [Peptide 15, c[Pro-Arg-DPhe-DPhe-Dap-Ala-Phe-DPro]]"
experimental_value = "no activity was observed"

[[record]]
compound = "C[C@@H]1NC(=O)[C@H](CN)NC(=O)[C@H](Cc2ccccc2)NC(=O)[C@H](Cc2ccccc2)NC(=O)[C@@H](CCCNC(=N)N)NC(=O)[C@@H]2CCCN2C(=O)[C@H]2CCCN2C(=O)[C@H](Cc2ccccc2)NC1=O [Peptide 10, c[Pro-DArg-Phe-Phe-Dap-Ala-Phe-DPro]]"
experimental_value = "no activity was observed"

